- Method: Binding affinity to HSP90 by isothermal titration calorimetry assay
Quantity Measured: pKd
// pKd: -log10(molar conc.)

Documented pKd of Cc1cc(-c2ccc(Cl)cc2Cl)nc(N)n1 : 6.98

Next item in the queue.
Documented pKd of COc1ccccc1-c1cc(C)nc(N)n1 : 5.46

###

Catalogue of compounds with associated log10 Ki
- Method: Displacement of tritium-labeled resorcinol amide ligand from HSP90 by scintillation proximity assay
Log scale reminder: Ki in µM, then log10 taken.

Check out these entries, answers already filled in.
Documented log10 Ki of COc1cc(-c2nc(C)nc3[nH]ccc23)c(Cl)cc1Cl : 0.23

Documented log10 Ki of CC(C)(C)OC(=O)n1cccc1-c1cc(Cl)nc(N)n1 : -0.52

Documented log10 Ki of Cc1cc(-c2ccc(Cl)cc2Cl)nc(N)n1 : -0.46

---
Documented log10 Ki of COc1cc(-c2nc(C)nc3[nH]c(C)c(Cl)c23)c(Cl)cc1Cl : -1.00

Documented log10 Ki of COc1ccccc1-c1cc(C)nc(N)n1 : 0.90

Documented log10 Ki of Cc1cc(-c2ccccc2)nc(N)n1 : 1.34

###

Catalogue of compounds with associated IC50
- Target: Heat shock protein HSP90 (Homo sapiens, UniProt P07900+P08238)
- Method: Inhibition of HSP90 in human H1299 cells assessed as degradation of Akt protein after 24 hrs by luminex assay
- Format: cell-based
All answers are understood in µM, so give the number only.

Check out these entries, answers already filled in.
Documented IC50 of COc1cc(-c2nc(C)nc3[nH]cc(C#N)c23)c(Cl)cc1Cl : 1

Documented IC50 of COc1cc(Cl)ccc1-c1cc(C)nc(N)n1 : 27

Documented IC50 of CCc1[nH]c2nc(C)nc(-c3cc(OC)c(Cl)cc3Cl)c2c1C#N : 0.5

---
Documented IC50 of COc1cc(-c2nc(C)nc3[nH]cc(Cl)c23)c(Cl)cc1Cl : 2

Documented IC50 of COc1cc(-c2nc(C)nc3[nH]c(C)c(C#N)c23)c(Cl)cc1Cl : 0.7

Documented IC50 of Cc1cc(-c2ccc(Cl)cc2Cl)nc(N)n1 : 10.5

Documented IC50 of CC(C)(C)OC(=O)n1cccc1-c1cc(Cl)nc(N)n1 : 45

Documented IC50 of COc1cc(-c2cc(C)nc(N)n2)c(Cl)cc1Cl : 10

###

Catalogue of compounds with associated pKi
- Method: Displacement of tritium-labeled resorcinol amide ligand from HSP90 by scintillation proximity assay
// pKi: -log10(molar conc.)

Check out these entries, answers already filled in.
Documented pKi of COc1cc(-c2nc(C)nc3[nH]cc(Cl)c23)c(Cl)cc1Cl : 6.70

Documented pKi of COc1cc(-c2nc(C)nc3[nH]c(C)cc23)c(Cl)cc1Cl : 5.70

Next item in the queue.
Documented pKi of COc1cc(Cl)ccc1-c1cc(C)nc(N)n1 : 5.57

###

Catalogue of compounds with associated log10 of Ki
- Method: Displacement of tritium-labeled resorcinol amide ligand from HSP90 by scintillation proximity assay
Log scale reminder: Ki in nM, then log10 taken.

Check out these entries, answers already filled in.
Documented log10 of Ki of Cc1cc(-c2cccn2C(=O)OC(C)(C)C)nc(N)n1 : 3.57

Documented log10 of Ki of COc1cc(-c2nc(C)nc3[nH]cc(C(C)=O)c23)c(Cl)cc1Cl : 2.30

Documented log10 of Ki of CCc1[nH]c2nc(C)nc(-c3cc(OC)c(Cl)cc3Cl)c2c1C#N : 1.18

Documented log10 of Ki of COc1cc(-c2cc(C)nc(N)n2)c(Cl)cc1Cl : 2.15

---
Documented log10 of Ki of COc1cc(-c2cc(N)nc(C)n2)c(Cl)cc1Cl : 4.00

Documented log10 of Ki of COc1cc(-c2nc(C)nc3[nH]cc(F)c23)c(Cl)cc1Cl : 2.30
